# test_target: UniProt:O35435
# Sequence (O35435 whole entry): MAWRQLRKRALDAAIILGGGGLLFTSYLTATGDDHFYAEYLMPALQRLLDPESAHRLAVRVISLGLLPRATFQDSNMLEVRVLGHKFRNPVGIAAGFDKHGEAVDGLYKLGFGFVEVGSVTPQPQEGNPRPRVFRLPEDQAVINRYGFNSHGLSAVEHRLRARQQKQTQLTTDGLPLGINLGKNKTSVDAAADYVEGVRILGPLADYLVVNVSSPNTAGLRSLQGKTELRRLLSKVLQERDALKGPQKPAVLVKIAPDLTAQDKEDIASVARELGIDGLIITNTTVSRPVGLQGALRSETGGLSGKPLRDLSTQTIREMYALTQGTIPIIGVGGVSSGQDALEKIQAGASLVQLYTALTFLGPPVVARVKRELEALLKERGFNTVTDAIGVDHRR
# assay: Recombinant DHODH inhibition, DCIP dye-based assay
# Type: biochemical
# study_conditions: third value of cell, read-out: h/d/m/r DHODH (m)
pIC50: −log10 of the molar value.
Each entry below lists one item and its recorded pIC50 value.
observed_property: pIC50

INSERT INTO results (compound, observed_property, quantitative_result) VALUES
  ('Cc1cc(Nc2ccc(C(F)(F)F)nc2)n2nc(C(C)(F)F)nc2n1 [Reference 1]', 'pIC50', 4.13),
  ('Cc1cc(Nc2ccc(C(F)(F)F)cc2)n2nc(C(C)(F)F)nc2n1 [Reference 3]', 'pIC50', 4.62),
  ('Cc1nc2nc(C(C)(F)F)nn2c(Nc2ccc(C(F)(F)F)nc2)c1F [Compound (2)]', 'pIC50', 4.70),
  ('Cc1cc(Nc2ccc(C(F)(F)F)nc2)n2nc(C(F)(F)F)nc2n1 [Compound (3)]', 'pIC50', 4.48),
  ('Cc1cc(Nc2ccc(C(F)(F)F)nc2)n2nc(C(C)(F)F)nc2n1 [Compound (1)]', 'pIC50', 4.27);
